Assay: Solvation interaction parameters by inverse gas-liquid chromatography (Abraham model)
Format: physicochemical
Conditions: 70° C.
Procedure: The preparation of the capillary columns for inverse gas-liquid chromatographic analysis was performed using a previously described procedure. All capillary columns had efficiencies between 2100 to 2500 plates/meter. […] Previously we characterized a large number of room temperature ionic liquids in terms of multiple solvation interactions using the solvation parameter model, shown in equation log k=c+rR2+sπ2^H+aα2^H+bβ2^H+l log L^16 [3] […] The retention factor is determined chromatographically. […]
Can you tell me Interaction parameter r (interaction via nonbonding and π-electrons) for the items I'm about to list?
Reply: number alone, nothing else.

Interaction parameter r (interaction via nonbonding and π-electrons) for C[N+]1(CCCCCCCCC[N+]2(C)CCCC2)CCCC1.O=S(=O)([N-]S(=O)(=O)C(F)(F)F)C(F)(F)F.O=S(=O)([N-]S(=O)(=O)C(F)(F)F)C(F)(F)F ? 0.34

Interaction parameter r (interaction via nonbonding and π-electrons) for CCCCn1cc[n+](C)c1.O=S(=O)([N-]S(=O)(=O)C(F)(F)F)C(F)(F)F [BMIM-NTf2, reference compound] ? 0

Interaction parameter r (interaction via nonbonding and π-electrons) for C[n+]1ccn(CCCCn2cc[n+](C)c2)c1.O=S(=O)([N-]S(=O)(=O)C(F)(F)F)C(F)(F)F.O=S(=O)([N-]S(=O)(=O)C(F)(F)F)C(F)(F)F ? 0.22

Interaction parameter r (interaction via nonbonding and π-electrons) for Cn1cc[n+](CCCCCCCCC[n+]2ccn(C)c2)c1.O=S(=O)([N-]S(=O)(=O)C(F)(F)F)C(F)(F)F.O=S(=O)([N-]S(=O)(=O)C(F)(F)F)C(F)(F)F ? 0.11

Interaction parameter r (interaction via nonbonding and π-electrons) for O=S(=O)([N-]S(=O)(=O)C(F)(F)F)C(F)(F)F.O=S(=O)([N-]S(=O)(=O)C(F)(F)F)C(F)(F)F.c1ccc(Cn2cc[n+](CCCCCCCCCCCC[n+]3ccn(Cc4ccccc4)c3)c2)cc1 ? 0.07

----------
Assay: Miscibility/solubility in heptane and water
Value type: Miscibility with Water

>>> observed("C[N+]1(CCC[N+]2(C)CCCC2)CCCC1.F[P-](F)(F)(F)(F)F.F[P-](F)(F)(F)(F)F")
"Immiscible"
>>> observed("Cn1cc[n+](CCC[n+]2ccn(C)c2)c1.F[P-](F)(F)(F)(F)F.F[P-](F)(F)(F)(F)F")
"Immiscible"
>>> observed("Cn1cc[n+](CCC[n+]2ccn(C)c2)c1.F[B-](F)(F)F.F[B-](F)(F)F")
"Miscible"
>>> observed("Cn1cc[n+](CCCCCCCCCCCC[n+]2ccn(C)c2)c1.[Br-].[Br-]")
"Miscible"

// switching to the query compound
Miscibility with Water for Cn1cc[n+](CCC[n+]2ccn(C)c2)c1.[Br-].[Br-] ? Miscible

----------
Assay: Solvation interaction parameters by inverse gas-liquid chromatography (Abraham model)
Assay type: physicochemical
Details: 70° C.
Value type: Interaction parameter b (hydrogen bond acidity)
Reply: number alone, nothing else.

Interaction parameter b (hydrogen bond acidity) for CCCCn1cc[n+](C)c1.O=S(=O)([N-]S(=O)(=O)C(F)(F)F)C(F)(F)F [BMIM-NTf2, reference compound] ? 0.38

Interaction parameter b (hydrogen bond acidity) for C[N+]1(CCCCCCCCC[N+]2(C)CCCC2)CCCC1.O=S(=O)([N-]S(=O)(=O)C(F)(F)F)C(F)(F)F.O=S(=O)([N-]S(=O)(=O)C(F)(F)F)C(F)(F)F ? 0.35

Interaction parameter b (hydrogen bond acidity) for O=S(=O)([N-]S(=O)(=O)C(F)(F)F)C(F)(F)F.O=S(=O)([N-]S(=O)(=O)C(F)(F)F)C(F)(F)F.c1ccc(Cn2cc[n+](CCCCCCCCCCCC[n+]3ccn(Cc4ccccc4)c3)c2)cc1 ? 0.57

Interaction parameter b (hydrogen bond acidity) for Cn1cc[n+](CCCCCCCCC[n+]2ccn(C)c2)c1.O=S(=O)([N-]S(=O)(=O)C(F)(F)F)C(F)(F)F.O=S(=O)([N-]S(=O)(=O)C(F)(F)F)C(F)(F)F ? 0.20

Interaction parameter b (hydrogen bond acidity) for C[n+]1ccn(CCCCn2cc[n+](C)c2)c1.O=S(=O)([N-]S(=O)(=O)C(F)(F)F)C(F)(F)F.O=S(=O)([N-]S(=O)(=O)C(F)(F)F)C(F)(F)F ? 0.45
